Reference source for all entries: paper PMC12498411

Biological target: MAO-B (Mus musculus)
Construct: Mitochondria-enriched brain preparations were obtained in accordance with established methodology outlined in literature; from tissue; host or cells: mouse brain, mitochondria-enriched fraction
Test: Cerebral MAO-B activity, mitochondria-enriched mouse brain fraction (kynuramine, fluorimetric)
Type: biochemical
Settings: mouse brain mitochondria-rich fraction, 25–200 μM, kynuramine 60 μM; read-out: IC50 for MAO-B
VALUE KIND: pIC50
Hey, just a heads up that pIC50 is the negative log base 10 of the concentration in molar.

Memo: "Cc1ccc(C(=O)C[n+]2ccccc2C[Se]c2ccccc2)cc1" , reported pIC50: 4.04

###

Test system: protein carbonylation
Test: Protein carbonylation assay, SNP-induced, brain homogenate
Assay type: biochemical, mouse
Conditions: mouse brain homogenate, SNP-induced, 25–200 μM
Experimental: Brains from mice of both sexes were used for in vitro assays, each performed in duplicate across three independent experiments (n = 3), conducted on different days. The evaluation of protein carbonylation was performed according to a previously established protocol, using freshly prepared brain homogenate diluted at a 1:8 ratio in Tris-HCl buffer. […] The findings were quantified as nmol carbonyl per gram of tissue.
VALUE KIND: pIC50
In plain terms, pIC50 is the concentration in mol/L turned into minus its base-10 logarithm.

O=C(C[n+]1ccccc1C[Se]c1ccccc1)c1ccc(Cl)cc1.[Br-] [Compound 3C]: 3.96

Noted for Cc1ccc(C(=O)C[n+]2ccccc2C[Se]c2ccccc2)cc1 [Compound 3B] : its pIC50 reads 3.64

Entry O=C(C[n+]1ccccc1C[Se]c1ccccc1)c1ccccc1.[Br-] [Compound 3A] — recorded pIC50 = 3.89

###

Molecular target: MAO-A (Mus musculus, UniProt Q64133)
Construct: Mitochondria-enriched brain preparations were obtained in accordance with established methodology outlined in literature; from tissue; host or cells: mouse brain, mitochondria-enriched fraction
Sequence (Q64133 1-526): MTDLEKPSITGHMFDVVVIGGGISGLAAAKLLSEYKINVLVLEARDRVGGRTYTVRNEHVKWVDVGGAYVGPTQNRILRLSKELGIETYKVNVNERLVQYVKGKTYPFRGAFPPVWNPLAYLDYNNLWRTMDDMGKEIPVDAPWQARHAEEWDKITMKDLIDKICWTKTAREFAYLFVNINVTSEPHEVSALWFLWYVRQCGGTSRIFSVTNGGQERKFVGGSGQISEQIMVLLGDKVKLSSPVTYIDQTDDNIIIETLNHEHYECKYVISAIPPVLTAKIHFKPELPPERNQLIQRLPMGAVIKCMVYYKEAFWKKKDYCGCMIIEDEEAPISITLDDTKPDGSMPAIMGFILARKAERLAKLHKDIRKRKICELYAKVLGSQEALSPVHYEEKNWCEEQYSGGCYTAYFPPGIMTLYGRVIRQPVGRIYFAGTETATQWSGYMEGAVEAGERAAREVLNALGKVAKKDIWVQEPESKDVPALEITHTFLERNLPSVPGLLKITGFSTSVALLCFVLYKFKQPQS
Assay: Cerebral MAO-A activity, mitochondria-enriched mouse brain fraction (kynuramine, fluorimetric)
Format: biochemical
Details: mouse brain mitochondria-rich fraction, 25–200 μM, kynuramine 90 μM; read-out: IC50 for MAO-A
VALUE KIND: pIC50
Entry type: numeric. Quantity: pIC50, the -log10 of concentration in molar units.

Note to self: pIC50 recorded for "Cc1ccc(C(=O)C[n+]2ccccc2C[Se]c2ccccc2)cc1" was 4.13

###

Listed here are compounds together with their documented pIC50.
Target: MAO-B (Mus musculus, UniProt Q8BW75)
Construct: Mitochondria-enriched brain preparations were obtained in accordance with established methodology outlined in literature; from tissue; host or cells: mouse brain, mitochondria-enriched fraction
Sequence (Q8BW75 1-520): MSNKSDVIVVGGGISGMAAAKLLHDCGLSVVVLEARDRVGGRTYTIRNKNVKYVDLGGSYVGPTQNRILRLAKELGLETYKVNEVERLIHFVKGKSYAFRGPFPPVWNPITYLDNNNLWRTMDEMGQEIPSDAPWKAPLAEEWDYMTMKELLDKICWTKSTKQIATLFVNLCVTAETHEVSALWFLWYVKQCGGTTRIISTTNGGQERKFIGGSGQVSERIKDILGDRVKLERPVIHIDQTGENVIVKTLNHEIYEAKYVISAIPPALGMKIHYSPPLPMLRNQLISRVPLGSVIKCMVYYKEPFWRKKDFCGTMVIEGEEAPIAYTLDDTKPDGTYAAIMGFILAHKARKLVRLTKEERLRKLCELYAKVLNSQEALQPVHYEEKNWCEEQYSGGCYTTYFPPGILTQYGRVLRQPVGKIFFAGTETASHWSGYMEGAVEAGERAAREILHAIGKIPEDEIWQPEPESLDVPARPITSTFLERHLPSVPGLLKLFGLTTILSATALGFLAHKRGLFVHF
Assay: Cerebral MAO-B activity, mitochondria-enriched mouse brain fraction (kynuramine, fluorimetric)
Assay type: biochemical
Hey, just a heads up that pIC50 is the negative log base 10 of the concentration in molar.

O=C(C[n+]1ccccc1C[Se]c1ccccc1)c1ccc(Cl)cc1.[Br-]: 3.90

Could you now consider this next compound?
response.value for "O=C(C[n+]1ccccc1C[Se]c1ccccc1)c1ccccc1.[Br-]" (field: pIC50) = 3.89
